Target: Sko1 (UniProt Q02100)
Sequence: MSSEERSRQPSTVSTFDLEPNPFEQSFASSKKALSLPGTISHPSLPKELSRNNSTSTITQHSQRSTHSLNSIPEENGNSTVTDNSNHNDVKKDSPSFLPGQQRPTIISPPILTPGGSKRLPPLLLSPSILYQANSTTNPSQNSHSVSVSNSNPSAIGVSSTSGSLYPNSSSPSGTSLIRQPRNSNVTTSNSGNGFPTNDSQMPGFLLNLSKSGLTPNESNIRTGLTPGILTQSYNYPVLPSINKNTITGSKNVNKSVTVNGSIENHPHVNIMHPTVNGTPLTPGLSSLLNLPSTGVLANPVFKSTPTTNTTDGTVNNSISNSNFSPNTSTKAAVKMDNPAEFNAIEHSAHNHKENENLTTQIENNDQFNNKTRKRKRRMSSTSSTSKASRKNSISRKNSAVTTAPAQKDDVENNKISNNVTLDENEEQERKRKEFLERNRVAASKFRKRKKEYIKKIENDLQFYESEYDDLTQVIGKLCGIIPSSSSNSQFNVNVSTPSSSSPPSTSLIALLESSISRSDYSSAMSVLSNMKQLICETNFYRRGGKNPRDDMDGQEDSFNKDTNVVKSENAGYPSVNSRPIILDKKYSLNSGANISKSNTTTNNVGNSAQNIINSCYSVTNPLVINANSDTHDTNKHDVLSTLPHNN
Experiment: PBM E-score (8-mer binding enrichment) (E-score (-0.5 to 0.5)); higher = stronger / more preferred TF binding
Conditions: protein concentration: 200 nM; construct: GST-full length
The full ranking holds about 33,000 sequences; the median of “E-score (-0.5 to 0.5)” is about -0.032, and the highest 2% start at about 0.36. What follows is part of a selection rich in the highest values, with near analogues and random picks from the rest.
The entries below come with measured PBM E-score values attached.

>>> reading("GCCTTAGC")
-0.113
>>> reading("AATGAGGT")
0.324
>>> reading("CGCGGTTA")
-0.0722
>>> reading("AGGTACTG")
-0.125
>>> reading("ACGTCGTG")
0.361
>>> reading("AACTGGTC")
-0.112
>>> reading("ATTCGCTG")
0.0204
>>> reading("ACGTCGTC")
0.387

**Query** Please report the recorded PBM E-score for TCATTGAA .
**Result** 0.146

**Query** Query CGACGTCC next
**Result** 0.169

**Query** Query ACGTCGCG next
**Result** 0.356

====

Molecular target: Sko1 (UniProt Q02100)
Sequence: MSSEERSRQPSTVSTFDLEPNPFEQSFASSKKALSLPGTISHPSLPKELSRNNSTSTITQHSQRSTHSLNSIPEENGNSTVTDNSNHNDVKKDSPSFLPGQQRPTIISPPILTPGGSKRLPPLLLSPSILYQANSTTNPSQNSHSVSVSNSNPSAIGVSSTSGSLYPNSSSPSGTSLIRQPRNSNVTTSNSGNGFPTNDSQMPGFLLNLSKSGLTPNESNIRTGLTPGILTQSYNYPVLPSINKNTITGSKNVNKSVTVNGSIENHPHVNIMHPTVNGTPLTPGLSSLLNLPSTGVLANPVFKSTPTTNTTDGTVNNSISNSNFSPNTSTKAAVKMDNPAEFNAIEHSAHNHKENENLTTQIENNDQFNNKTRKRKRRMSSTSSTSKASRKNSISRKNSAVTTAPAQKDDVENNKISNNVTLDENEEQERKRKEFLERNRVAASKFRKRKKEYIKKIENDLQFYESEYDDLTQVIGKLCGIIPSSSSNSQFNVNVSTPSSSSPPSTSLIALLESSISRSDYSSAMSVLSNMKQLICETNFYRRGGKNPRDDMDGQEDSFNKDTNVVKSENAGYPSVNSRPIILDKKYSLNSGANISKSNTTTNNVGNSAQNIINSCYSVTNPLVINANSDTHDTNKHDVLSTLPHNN
Test: PBM E-score (8-mer binding enrichment) (E-score (-0.5 to 0.5)); higher = stronger / more preferred TF binding
Conditions: protein concentration: 200 nM; construct: GST-full length
Over roughly 33,000 sequences, “E-score (-0.5 to 0.5)” has its median near -0.032; the highest 2% begin near 0.36. Shown is part of a subset that was picked to be rich in the highest values.
Reported property: PBM E-score
Just the number.

>>> reading("CGAGTATA")
-0.0254

**Query** Please report the recorded PBM E-score for AGTCACTC .
**Result** -0.0377

**Query** Query CGTCACTA next
**Result** 0.445

**Query** Query ATGGGGCA next
**Result** -0.185

**Query** Query GTATTGCA next
**Result** 0.0688
